meta.source: patent US20120040951A1

biological target: V599E Raf (Homo sapiens, UniProt P15056, V600E); experiment: Biochemical FRET assay, mutant Raf (phosphorylation of MEK); conditions: 0.125 nM V599E Raf, 100 nM biotin-MEK, 25 μM ATP, read-out: Raf (mut) inhibition
Sequence (P15056 whole entry V600E): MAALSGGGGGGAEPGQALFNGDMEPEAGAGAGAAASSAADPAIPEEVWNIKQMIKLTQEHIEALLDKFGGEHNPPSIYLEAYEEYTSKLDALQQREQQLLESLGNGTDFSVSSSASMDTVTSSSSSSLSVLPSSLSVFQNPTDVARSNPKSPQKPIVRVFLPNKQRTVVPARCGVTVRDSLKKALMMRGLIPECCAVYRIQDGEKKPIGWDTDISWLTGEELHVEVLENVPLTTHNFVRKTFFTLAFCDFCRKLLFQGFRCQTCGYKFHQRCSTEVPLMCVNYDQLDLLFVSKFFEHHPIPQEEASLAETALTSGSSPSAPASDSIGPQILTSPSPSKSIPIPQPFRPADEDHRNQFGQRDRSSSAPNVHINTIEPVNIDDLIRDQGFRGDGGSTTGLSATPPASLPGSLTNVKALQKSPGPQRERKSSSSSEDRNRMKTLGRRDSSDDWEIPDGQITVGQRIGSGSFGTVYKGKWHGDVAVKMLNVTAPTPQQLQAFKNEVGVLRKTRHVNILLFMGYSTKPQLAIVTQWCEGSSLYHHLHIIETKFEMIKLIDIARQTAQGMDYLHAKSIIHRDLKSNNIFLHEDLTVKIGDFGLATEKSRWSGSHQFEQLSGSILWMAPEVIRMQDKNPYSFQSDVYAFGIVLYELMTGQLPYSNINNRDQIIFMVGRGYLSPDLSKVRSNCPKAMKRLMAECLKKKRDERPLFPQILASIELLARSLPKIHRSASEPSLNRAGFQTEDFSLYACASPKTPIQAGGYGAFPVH
pIC50: −log10 of the molar value.

{"compound": "CC(NC(=O)c1cc2c(cn1)ncn2C1CN(C(C)C)C1)c1cnc(Nc2ccc(C(F)(F)F)cc2)cn1 (stereo not shown)", "experimentalTarget": "V599E Raf (Homo sapiens, UniProt P15056, V600E)", "pIC50": "≥ 7.00"}
{"compound": "C[C@@H](NC(=O)c1cnn(Cc2ccccc2)c1)c1ncc(C(=O)Nc2cc(C(F)(F)F)c(Cl)cn2)s1", "experimentalTarget": "V599E Raf (Homo sapiens, UniProt P15056, V600E)", "pIC50": "≥ 7.00"}
{"compound": "CC(NC(=O)c1cc2c(cn1)ncn2C)c1cnc(Nc2cc(S(=O)(=O)C(F)(F)F)ccc2Cl)cn1 (stereo not shown)", "experimentalTarget": "V599E Raf (Homo sapiens, UniProt P15056, V600E)", "pIC50": "≥ 7.00"}
{"compound": "C[C@@H](NC(=O)c1cccc(N2CCCCC2)n1)c1ncc(C(=O)Nc2cc(C(F)(F)F)c(Cl)cn2)s1", "experimentalTarget": "V599E Raf (Homo sapiens, UniProt P15056, V600E)", "pIC50": "6.00 to 7.00"}
{"compound": "CC(NC(=O)c1cc2c(cn1)ncn2C)c1cnc(Nc2cccc(C(C)(C)C(F)(F)F)c2)cn1 (stereo not shown)", "experimentalTarget": "V599E Raf (Homo sapiens, UniProt P15056, V600E)", "pIC50": "≥ 7.00"}
{"compound": "C[C@@H](NC(=O)c1ccc2ncccc2c1)c1cc(C(=O)Nc2cnc(C(C)(C)C)nc2N)no1", "experimentalTarget": "V599E Raf (Homo sapiens, UniProt P15056, V600E)", "pIC50": "6.00 to 7.00"}
{"compound": "CC(NC(=O)c1cc2c(cn1)ncn2C1CNC1)c1cnc(Nc2ccc(C(F)(F)F)cc2)cn1 (stereo not shown)", "experimentalTarget": "V599E Raf (Homo sapiens, UniProt P15056, V600E)", "pIC50": "≥ 7.00"}

* * *

system: phospho-ERK in melanoma derived WM-266-4 cells; assay: Mechanistic cellular assay for Raf kinase activity (phospho-ERK, Bio-Plex); assay type: cell-based; conditions: Homo sapiens, treated 1-2 hr at 37° C., serum free medium, read-out: pERK EC50
pEC50: −log10 of the molar value.
Some compounds, each annotated with its measured pEC50.

{"compound": "CC(NC(=O)c1cnc2n1CCNC2)c1cnc(Nc2ccc(C(F)(F)F)cc2)s1 (stereo not drawn)", "experimentalTarget": "phospho-ERK in melanoma derived WM-266-4 cells", "pEC50": "6.00 to 7.00"}
{"compound": "CCn1cncc1C(=O)N[C@H](C)c1ncc(C(=O)Nc2cc(C(F)(F)F)c(Cl)cn2)s1", "experimentalTarget": "phospho-ERK in melanoma derived WM-266-4 cells", "pEC50": "6.00 to 7.00"}
{"compound": "CC(NC(=O)c1cc2c(cn1)ncn2C)c1cnc(Nc2ccc(C(F)(F)F)cc2)cn1 (stereo not drawn)", "experimentalTarget": "phospho-ERK in melanoma derived WM-266-4 cells", "pEC50": "≥ 7.00"}
{"compound": "CCn1cnc2cnc(C(=O)NC(C)c3cnc(Nc4ccc(C(F)(F)F)cc4)cn3)nc21 (stereo not drawn)", "experimentalTarget": "phospho-ERK in melanoma derived WM-266-4 cells", "pEC50": "6.00 to 7.00"}
{"compound": "CC(C)S(=O)(=O)N1CC(n2cnc3cnc(C(=O)N[C@H](C)c4cnc(Nc5ccc(C(F)(F)F)cc5)cn4)cc32)C1", "experimentalTarget": "phospho-ERK in melanoma derived WM-266-4 cells", "pEC50": "≥ 7.00"}
{"compound": "COc1cc(C(F)(F)F)ccc1Nc1cnc(C(C)NC(=O)c2cc3c(cn2)ncn3C)cn1 (stereo not drawn) [Example 265b]", "experimentalTarget": "phospho-ERK in melanoma derived WM-266-4 cells", "pEC50": "6.00 to 7.00"}
{"compound": "Cc1nc2cnc(C(=O)NC(C)c3ncc(Nc4ccc(C(F)(F)F)cc4)s3)cn2c1Cl (stereo not drawn)", "experimentalTarget": "phospho-ERK in melanoma derived WM-266-4 cells", "pEC50": "5.00 to 6.00"}
{"compound": "CC(NC(=O)c1cc2c(cn1)ncn2C)c1cnc(Nc2ccc(S(=O)(=O)C(F)(F)F)cc2)s1 (stereo not drawn)", "experimentalTarget": "phospho-ERK in melanoma derived WM-266-4 cells", "pEC50": "6.00 to 7.00"}
{"compound": "CCN1CC(n2cnc3cnc(C(=O)N[C@H](C)c4cnc(Nc5ccc(C(F)(F)F)cc5)cn4)cc32)C1 (stereo in doubt)", "experimentalTarget": "phospho-ERK in melanoma derived WM-266-4 cells", "pEC50": "6.00 to 7.00"}
{"compound": "C[C@@H](NC(=O)c1cc2cn(C)nc2cn1)c1cnc(Nc2ccc(C(F)(F)F)cc2)s1", "experimentalTarget": "phospho-ERK in melanoma derived WM-266-4 cells", "pEC50": "≥ 7.00"}
{"compound": "Cc1ncc(C(=O)N[C@H](C)c2ncc(C(=O)Nc3cc(C(F)(F)F)c(Cl)cn3)s2)n1-c1ccccn1", "experimentalTarget": "phospho-ERK in melanoma derived WM-266-4 cells", "pEC50": "6.00 to 7.00"}
{"compound": "C[C@@H](NC(=O)c1ccc2[nH]c(CO)nc2c1)c1ncc(C(=O)Nc2cc(C(F)(F)F)c(Cl)cn2)s1", "experimentalTarget": "phospho-ERK in melanoma derived WM-266-4 cells", "pEC50": "5.00 to 6.00"}
{"compound": "Cc1nc(C(F)(F)F)ccc1Nc1ncc(C(C)NC(=O)c2cc3c(cn2)ncn3C)s1 (stereo not drawn)", "experimentalTarget": "phospho-ERK in melanoma derived WM-266-4 cells", "pEC50": "6.00 to 7.00"}
{"compound": "C[C@@H](NC(=O)c1cncn1C)c1ncc(C(=O)Nc2cc(C(F)(F)F)c(Cl)cn2)s1", "experimentalTarget": "phospho-ERK in melanoma derived WM-266-4 cells", "pEC50": "6.00 to 7.00"}
{"compound": "Cc1c(C(=O)N[C@H](C)c2ncc(C(=O)Nc3cc(C(F)(F)F)c(Cl)cn3)s2)cnn1C", "experimentalTarget": "phospho-ERK in melanoma derived WM-266-4 cells", "pEC50": "≥ 7.00"}
